Measured pIC50 of individual entries
- target or test system: prolyl hydroxylase (Homo sapiens, UniProt P13674)
- Sequence (P13674 18-534): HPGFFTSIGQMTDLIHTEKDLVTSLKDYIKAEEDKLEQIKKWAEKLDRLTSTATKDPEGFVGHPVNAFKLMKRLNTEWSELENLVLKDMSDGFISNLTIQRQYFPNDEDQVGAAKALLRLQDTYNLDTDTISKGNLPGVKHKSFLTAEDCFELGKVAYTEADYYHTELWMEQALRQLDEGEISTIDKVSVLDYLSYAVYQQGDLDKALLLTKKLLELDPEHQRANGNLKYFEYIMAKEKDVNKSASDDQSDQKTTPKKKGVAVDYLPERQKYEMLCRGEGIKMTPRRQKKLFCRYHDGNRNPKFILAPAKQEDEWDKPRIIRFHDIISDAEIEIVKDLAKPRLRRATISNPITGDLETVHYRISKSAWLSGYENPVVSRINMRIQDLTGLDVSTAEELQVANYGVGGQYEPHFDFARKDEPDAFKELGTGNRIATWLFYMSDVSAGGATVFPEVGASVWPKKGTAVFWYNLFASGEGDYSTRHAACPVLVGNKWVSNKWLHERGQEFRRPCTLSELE
- Sequence (P07237 18-508 partner): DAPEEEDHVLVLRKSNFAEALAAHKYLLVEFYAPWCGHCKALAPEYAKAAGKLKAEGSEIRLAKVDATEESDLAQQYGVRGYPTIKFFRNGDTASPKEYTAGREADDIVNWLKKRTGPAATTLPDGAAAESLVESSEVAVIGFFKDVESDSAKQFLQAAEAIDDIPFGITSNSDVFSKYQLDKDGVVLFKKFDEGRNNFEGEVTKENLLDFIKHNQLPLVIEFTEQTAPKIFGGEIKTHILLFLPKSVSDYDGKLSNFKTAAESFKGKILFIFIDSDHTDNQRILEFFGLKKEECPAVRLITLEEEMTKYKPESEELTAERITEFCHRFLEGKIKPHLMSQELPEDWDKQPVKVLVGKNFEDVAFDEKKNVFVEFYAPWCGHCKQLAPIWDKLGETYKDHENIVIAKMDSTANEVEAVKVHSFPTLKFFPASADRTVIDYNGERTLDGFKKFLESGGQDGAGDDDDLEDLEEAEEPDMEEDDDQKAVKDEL
- measurement notes: enzyme test, hydroxylation of insufficiently hydroxylated collagen by prolyl hydroxylase (cell-free)
- Assay type: biochemical
- particulars: second part of Table, P; read-out: DI50 P.circle.
Keep it numeric: pIC50 is minus log10 of the concentration in mol/L.

So for O=C(O)c1nc(-c2ccc(O)cc2O)sc1-c1ccccc1 , the logged pIC50 turned out to be 4.57

The reported value for Cc1ccc(O)c(-c2nc(C(=O)O)c(-c3ccccc3)s2)c1 in terms of pIC50 is 4.59

Given item O=C(O)c1csc(-c2cc(Cl)ccc2O)n1 , the value recorded as its pIC50 is 4.15

So for Nc1ccc(O)c(-c2nc(C(=O)O)cs2)c1 , the logged pIC50 turned out to be 5.25

Documented pIC50 of Cc1ccc(O)c(-c2nc(C(=O)O)c(C(=O)O)s2)c1 : 4.17

// sample O=C(O)c1csc(-c2cc(Cl)c3ccccc3c2O)n1 , its pIC50 was 4.55

====

The compounds listed here are annotated with their pIC50.
- target or test system: prolyl hydroxylase (Homo sapiens, UniProt P13674)
- measurement notes: enzyme test, hydroxylation of insufficiently hydroxylated collagen by prolyl hydroxylase (cell-free)
- Assay type: biochemical
- particulars: concentration at which the enzyme reaction is inhibited by 50%; first part of Table; read-out: DI50 propyl-hydroxylase
- Description: The inhibiting effect of the substances in accordance with the invention on collagen biosynthesis can be examined in an enzyme test analogous to the method of B. Peterkofsky and R. DiBlasio [Anal. Biochem. 66, 279-286 (1975)]. […] As enzymes, prolyl hydroxylase or lysyl hydroxylase can be used and applied in a cell-free medium. The effect of the substances of the invention can be measured furthermore in cell and tissue cultures. […]
In simple prose, pIC50 is minus the logarithm base ten of a concentration in moles per litre.

Examples with answers:
compound="O=C(O)C1CSC(c2cc(Cl)ccc2O)=N1 (stereo not drawn)" target_or_test_system="prolyl hydroxylase (Homo sapiens, UniProt P13674)" numeric_readout=4.80
compound="Cc1ccc(O)c(C2=NC(C(=O)O)CS2)c1 (stereo not drawn)" target_or_test_system="prolyl hydroxylase (Homo sapiens, UniProt P13674)" numeric_readout=4.55

The compound O=C(O)C1CSC(c2ccccc2O)=N1 (stereo not drawn) showed pIC50 equal to 4.70

Record summary for O=C(O)C1CSC(c2ccc(O)cc2O)=N1 (stereo not drawn) : reported pIC50 = 4.59

So, O=C(O)[C@@H]1CSC(c2ccccc2O)N1 (stereo partly drawn) ? Its pIC50 was 4.55

Reported pIC50 for Cc1ccc(O)c(-c2nc(C(=O)O)cs2)c1 was 4.38

====

- target or test system: lysyl hydroxylase (Homo sapiens)
- Sequence (Q02809 19-727): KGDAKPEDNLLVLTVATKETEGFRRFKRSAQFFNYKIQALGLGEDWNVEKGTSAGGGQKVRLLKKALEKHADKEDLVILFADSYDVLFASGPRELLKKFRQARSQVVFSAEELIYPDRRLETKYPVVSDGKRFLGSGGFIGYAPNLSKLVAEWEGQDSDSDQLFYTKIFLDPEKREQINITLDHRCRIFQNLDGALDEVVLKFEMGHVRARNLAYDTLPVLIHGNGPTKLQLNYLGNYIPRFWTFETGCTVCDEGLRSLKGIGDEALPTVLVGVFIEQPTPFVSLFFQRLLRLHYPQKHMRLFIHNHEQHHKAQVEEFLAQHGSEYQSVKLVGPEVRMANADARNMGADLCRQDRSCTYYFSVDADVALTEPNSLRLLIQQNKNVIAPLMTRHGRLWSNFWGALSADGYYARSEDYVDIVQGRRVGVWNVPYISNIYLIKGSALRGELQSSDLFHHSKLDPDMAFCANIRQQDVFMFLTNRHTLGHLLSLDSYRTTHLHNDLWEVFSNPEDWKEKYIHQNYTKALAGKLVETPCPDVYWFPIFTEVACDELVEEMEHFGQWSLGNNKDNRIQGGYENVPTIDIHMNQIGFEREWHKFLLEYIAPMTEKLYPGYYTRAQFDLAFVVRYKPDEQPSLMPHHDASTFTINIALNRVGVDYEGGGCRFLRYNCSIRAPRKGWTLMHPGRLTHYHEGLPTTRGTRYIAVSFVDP
- measurement notes: enzyme test, hydroxylation of insufficiently hydroxylated collagen by lysyl hydroxylase (cell-free)
- Type: biochemical
- particulars: second part of Table, column L (circled); read-out: DI50 L.circle.
assay endpoint: pIC50
Conceptually, pIC50 converts a concentration in mol/L into minus its log10.

Record excerpt, results attached:
smiles_str=O=C(O)c1csc(-c2cc(Cl)ccc2O)n1 target_or_test_system="lysyl hydroxylase (Homo sapiens)" numeric_readout=3.73
smiles_str=Cc1ccc(O)c(-c2nc(C(=O)O)c(-c3ccccc3)s2)c1 target_or_test_system="lysyl hydroxylase (Homo sapiens)" numeric_readout=4.47

Record Nc1ccc(O)c(-c2nc(C(=O)O)cs2)c1 , field pIC50: 4.54
